Source: patent US20110165066A1

Target: T1, human IL-13 wild type (human, UniProt P35225 35-146)
T1 construct: also called h IL-13; h IL-13 wt
T1 sequence (P35225 other isoform, or with tags, fused parts or gaps limits assumed): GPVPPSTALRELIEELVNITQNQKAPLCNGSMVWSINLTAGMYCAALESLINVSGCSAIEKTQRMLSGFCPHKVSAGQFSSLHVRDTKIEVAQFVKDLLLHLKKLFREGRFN
Assay: SPR (Biacore), mAb captured, IL-13 as analyte
Measured Kd, listed per entry for reference.

BINDER: 5D3 (antibody, V domains shown) VH: QVQLKESGPGLVAPSQSLSITCTVSGFSLTGYNINWVRQPPGKGLEWLGLIWGDGNTAFNSALKSRLSISKDNSKSQVFLKLNSLQTDDTARYYCARDGYYPYAIKYWGQGTSVTVSS VL: NIVLTQSPASLAVSLGQRATISCRASETVDSYGNSFMHWYQQKPGQPPKLLIYLASNLESGVPARFSGSGSRTDFTLTIDPVEADDAATYYCQQNNEDPRTFGGGTKLEIKR
Kd (pM): 296

BINDER: 5F1 (antibody, V domains shown) VH: QVQLQQSGAELARPGTSVKLSCKASGYTFTTYGISWVKQRTGQGLEWIGEIYPGSYNTYYNEKFRGKATLTADKSSSTAYMQLSSLTSEDSAVYFCSRWRTSYFSDYGYFDYWGQGTTLTVSS VL: DVVMTQTPLSLPVSLGDQASISCRSSQSLVHSHGNTYLHWYLQKPGQSPKLLIYTVSNRFSGVPDRFSGSGSGTDFTLKISRVEAEDLGVYFCSQSTHVPYTFGGGTKLEIKR
Kd (pM): 28.9
